Provide the recorded protein stability index for the entries that follow.
B1: ELF3 (parent)
chain: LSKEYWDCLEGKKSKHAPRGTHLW

- Variants of: B1
- PROTOCOL_DESCRIPTION: protein stability index of a GFP-peptide fusion (GPS, HEK-293T) (PSI 1-6); higher = more stable;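 further: lentivirally expressed fusions sorted by FACS into six bins by GFP to DsRed ratio, PSI derived from sequencing read proportions per bin multiplied by bin number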
- MEASUREMENT_PARAMETERS: c terminus: a fixed tail appended
Output: the number by itself.

Prompt: Requested field: protein stability index. Item: R19S
Completion: 3.29

Prompt: What do you have for A17L ?
Completion: 2.45

Prompt: What do you have for G20A ?
Completion: 2.45

Prompt: What do you have for S2M ?
Completion: 2.48

Prompt: What do you have for E10G ?
Completion: 2.37

Prompt: What do you have for K13I ?
Completion: 2.22

Prompt: What do you have for W6V ?
Completion: 3.13

Prompt: What do you have for W24M ?
Completion: 3.83

Prompt: What do you have for S2H ?
Completion: 3.04

Prompt: What do you have for R19V ?
Completion: 2.78

Prompt: What do you have for K3W ?
Completion: 2.35

Prompt: What do you have for A17F ?
Completion: 2.78

Prompt: What do you have for S14L ?
Completion: 2.19

Prompt: What do you have for L23Q ?
Completion: 3.59

Prompt: What do you have for G11V ?
Completion: 2.2

Prompt: What do you have for S2F ?
Completion: 2.26

Prompt: What do you have for L1V ?
Completion: 2.77

Prompt: What do you have for C8Q ?
Completion: 2.95

Prompt: What do you have for L9R ?
Completion: 2.89

Prompt: What do you have for W6D ?
Completion: 3.93

Prompt: What do you have for K3V ?
Completion: 2.1

Prompt: What do you have for L9E ?
Completion: 3.46
